measured-metric: intrinsic clearance, rat liver microsomes (mL/min/kg)

1 = Cn1cc(-c2nnc(NCc3ccc4ccccc4c3)o2)cn1
2 = CC(=O)Nc1ccc(Oc2ncnc3scc(-c4ccccc4)c23)cc1
Hi team, can someone confirm which has the larger intrinsic clearance, rat liver microsomes: 1 or 2 ? Thanks. Selection: enter the item's label.
2
(2: 438 mL/min/kg, 1: 46.3 mL/min/kg)

----------
conditions: pH 6.8
measured-metric: aqueous solubility (µg/mL)

Worked cases, aqueous solubility given:
> print(dat)
                                  structure     measured.metric  unit.text  value.measured
1  O=C(Nc1ccccc1)c1sc(N2CCOCC2)nc1-c1ccccc1  aqueous solubility      µg/mL            0.26
2  O=C(C1CC1)N1CC[C@@H](Cc2n[nH]c(=O)n2-c2ccc(-c3ccc4occc4c3)cc2)C1  aqueous solubility      µg/mL            40.1
3            Cc1cncc(C2CCN(Cc3cnccn3)CC2)n1  aqueous solubility      µg/mL            67.8
4  Cc1nc2ccc(C(=O)NCCCN3Cc4ccccc4C3)cc2[nH]1  aqueous solubility      µg/mL            52.4

1 = Cc1nnc(-c2ccccc2-c2ccc(O)cc2)s1
2 = Cc1cc(N)n(-c2ncnc3sc(C)c(-c4ccc(Cl)cc4)c23)n1
Between 1 and 2 , which one shows the smaller aqueous solubility number? To answer, give the label that identifies your chosen option.
2
(2: 6.32 µg/mL, 1: 50.1 µg/mL)

----------
measured-metric: intrinsic clearance, human liver microsomes (mL/min/kg)

Consider the following illustrative entries.
> print(dat)
                                 molecule  value.measured
1                 C#CCOc1ccc(OC)cc1C(N)=O            13.8
2  O=C(CC1c2ccccc2CCc2ccccc21)NCCN1CCOCC1             131
3         N#Cc1ccccc1OCc1csc(-c2ncccn2)n1            31.1

A = CCN1CCc2c(sc(NC(=O)CS(=O)(=O)c3ccccc3)c2-c2nc3ccccc3s2)C1
B = COc1ccc(/C=C/C(=O)c2c(C)nc3ccccc3c2N)cc1
Returns: the label, A or B , whose recorded intrinsic clearance, human liver microsomes is the lower number. Use the label to indicate which entry you chose.
A
(A: 71.6 mL/min/kg, B: 182 mL/min/kg)

a = Cn1nc(-c2cn(Cc3ccc(CO)cc3)nn2)c2c(Cl)cccc21
b = C/C(=C/COc1c2occc2cc2ccc(=O)oc12)CO
c = CN(C)C1CN(c2nc(-c3cnccn3)nc3sc4c(c23)CCCC4)C1
d = CC(C)c1cccc(CN2C(=O)N(C)C3(CCCCC3)C2=O)n1
e = Cc1cc(Nc2ccccn2)cc(C2CCCN(CC(=O)Nc3ncc(C)s3)C2)n1 (stereo not given)
Could you please order the items by intrinsic clearance, human liver microsomes, going from the lowest number to the highest? Ranked list of labels, please, in the requested order.
a, b, e, c, d

1 = Cc1cccc(N2CCN(CCCCNC(=O)c3c(F)cccc3F)CC2)c1
2 = O=C(NCC1(c2ccc(F)cc2)CCOCC1)c1ccccn1
Please choose the item with the lower intrinsic clearance, human liver microsomes value from this pair: 1 and 2 Pick one and reply with its label.
2

----------
details: pH 6.8
measured-metric: aqueous solubility (µg/mL)

Would you please look over these solved cases?
> print(dat)
                                  structure     measured.metric  value.measured
1  COc1ccc(-c2ccc(CNc3ccc(CN4CCC(C)CC4)cc3)cc2)cc1  aqueous solubility            14.7
2  Cc1nc(-c2ccccc2)c(C(=O)Nc2ccc(Cl)c(C(F)(F)F)c2)s1  aqueous solubility            0.42
3    CC(C)c1noc(-c2ccc(N(C)Cc3cccnc3)nc2)n1  aqueous solubility            36.6
4    O=C(NC[C@H]1COCc2nc3ccccc3n21)c1ccncc1  aqueous solubility            52.1
5         O=C(O)c1nc(-c2ccccc2)oc1-c1ccccc1  aqueous solubility            40.8

P = CN(C)CCN(Cc1ccccc1)C(=O)CCC(=O)Nc1ncc(-c2ccccc2)n1C
Q = O=C(Nc1ccc(F)cc1F)N1CCn2c1nc1ccccc12
R = CC(C)(C)C(=O)Nc1nnc(Cc2ccccc2)s1
S = O=C(Nc1nc2ccccc2[nH]1)c1cccnc1
T = Cc1ccc2c(C(=O)N(C)C)cc(-c3cnc(C(C)C)nc3)nc2c1C
Parameters: sort_field (aqueous solubility), sort_dir (desc). Please list the labels in the order you were asked to rank them.
P, R, Q, T, S
(P: 59.1 µg/mL, R: 35.2 µg/mL, Q: 6.1 µg/mL, T: 2.43 µg/mL, S: 0.2 µg/mL)

----------
details: pH 6.8
measured-metric: aqueous solubility (µg/mL)

The following molecules have reported results that may help.
> print(dat)
                                   molecule  value.measured
1       Cc1ncc2c(n1)CN(CCCc1nc3ccccc3o1)CC2            46.6
2     CON(C)C(=O)c1cc2ccc(C(C)(C)C)cc2[nH]1            1.02
3  O=C(c1cc(-c2cccc(Cl)c2)on1)N1CCC(n2cccc2)CC1            10.5
4      CN1CCCN(C(=O)NCCOc2ccc3c(c2)OCO3)CC1              70
5  c1cn2cc(-c3ccc4cn[nH]c4c3)nc(Nc3ccc(N4CCOCC4)cc3)c2n1             0.1

1 = Cc1ncsc1C(=O)N1CCCCC1c1nc(N)ncc1-c1cccc(C(F)(F)F)c1 (stereo not given)
2 = CC(C)(Oc1ccc(-c2cnc(N)c(-c3ccc(Cl)cc3)c2)cc1)C(=O)O
Min aqueous solubility? 1 | 2 Indicate which entry you chose by stating its label.
1
(1: 14.3 µg/mL, 2: 45.4 µg/mL)

A = COc1cccc(OCCCN)c1-c1cc(Nc2cnc(C#N)cn2)n[nH]1
B = O=C(O)c1ccc(-c2c[nH]c3ncc(-c4ccccc4)cc23)cc1C1CCCC1
For the two items A and B , which reports the higher aqueous solubility value? Output the label that corresponds to your choice.
A

----------
conditions: pH 6.8
measured-metric: aqueous solubility (µg/mL)

> print(dat)
                                   molecule  value.measured
1                 N#CCn1c(C(=O)O)cc2ccccc21            41.5
2          Cc1nn(Cc2cccc(Br)c2)c(C)c1C(=O)O            51.4
3       CCc1cnc(C)nc1-c1ccc(-c2ccn[nH]2)cc1            20.7
4              Cc1ccccc1C(=O)Nc1nc(C)c(C)s1            30.4
5  CC1(C)CC(Oc2ccc(-c3ccc(-c4cn[nH]c4)cc3O)nn2)CC(C)(C)N1            12.9
6  Cc1cc(C)n2ncc(C(=O)Nc3cccc(C(=O)O)c3)c2n1            17.6
7  CCCCc1nc2cc(/C=C/C(=O)NO)ccc2n1CCN(CC)CC            57.5
8        COc1ccc(C)cc1NC(=O)CN1CCc2ccccc2C1            15.5

P = CCn1nc(C2CCCC2)nc1-c1ccncc1
Q = C=CCN(c1ccc(C(=O)OC)cc1)S(=O)(=O)c1ccccc1
R = CC(C)c1nc(O)c2nnn(C[C@@H]3CCCN(Cc4cccs4)C3)c2n1
S = O=C(CN1CCCN(c2ccc(C(F)(F)F)cn2)CC1)Nc1ccccc1Cl
Sort by aqueous solubility, descending. Would you mind listing the labels in the order requested?
R, P, S, Q

P = Cc1nc(N2CCn3ccnc3C2)c2cnn(C)c2n1
Q = COc1ccc(-c2ccc(CN(CCN(C)C)Cc3ccncc3)cc2)cc1
Exercise: compare P and Q ; which one has the greater aqueous solubility? Pick one and reply with its label.
Q

1 = CCSCc1nc(N)c2ccccc2n1
2 = NC(=O)CC1CCN(c2ncccn2)CC1
3 = Cc1nn(-c2ccc(F)cc2)c2ncc(C(=O)Nc3nc(C4CC4)cs3)cc12
Arrange the 3 entries by aqueous solubility so the values rise. State the ranking by listing the labels in the requested order.
3, 1, 2

----------
measured-metric: MDR1-MDCK efflux ratio

// below: answered compounds
> print(dat)
                                   compound  value.measured
1  Cc1cccc2cc(C(=O)NCCCn3nnc4ccccc43)n(C)c12           0.886
2  O=S(=O)(c1cn[nH]c1)N1CCCC(c2cccc(-c3cccc(Cl)c3)n2)C1 (configuration not stated)               3
3           CN(C)c1nccc(N2CCN(CCCCCF)CC2)n1           0.419

P = COc1cccc(C(=O)C[n+]2cc(-c3ccc(F)cc3)n(C)c2N)c1
Q = Cc1csc(NC(=O)c2ccc(-c3ccncc3)cc2)n1
Of the two listed items, which has the higher MDR1-MDCK efflux ratio? First: P Second: Q The response must carry the label of the picked entry.
P
(P: 26.3, Q: 0.179)

Cited source: the Biogen ADME set (Fang et al. 2023)
